Provenance of the data: PubChem BioAssay (NCATS)

tested on: CP237; test: qHTS profiling for inhibitors of Plasmodium falciparum proliferation (AID 504749); also: nearly all actives have a fitted effect of over 60% in size; conditions: P. falciparum in erythrocytes, SYBR Green DNA, 72 h; series mostly up to 28.7 µM
Inconclusive results are not listed. Active and inactive are the calls of the source. Calls follow the shape of the dose curve; as a rule, active = well fitted inhibition curve with a large enough effect; inconclusive = small, poorly fitted or top-dose-only effect; inactive = flat fitted curve, though single readings scatter.
Pick one: true (1) (active), false (0) (inactive)

Prompt line: Dear colleague, could you share the recorded outcome for CC(=O)C1(O)Cc2c(O)c3c(c(O)c2C(OC2CC(N)C(O)C(C)O2)C1)C(=O)c1c(O)cccc1C3=O (stereo not given) when you have a moment?
Response line: true (1)

Prompt line: Dear colleague, could you share the recorded outcome for NC(C(=O)O)c1ccc(O)cc1 (stereo not given) when you have a moment?
Response line: false (0)

Prompt line: Dear colleague, could you share the recorded outcome for `O=C(O)c1ccc(N[C@@H]2OC[C@@H](O)[C@@H](O)[C@@H]2O)cc1` when you have a moment?
Response line: false (0)

Prompt line: Dear colleague, could you share the recorded outcome for CC1CCC(O)C/C1=C\C=C1/CCCC2(C)C1CCC2C(C)/C=C/C(C)C(C)C (stereo not given) when you have a moment?
Response line: false (0)

Prompt line: Dear colleague, could you share the recorded outcome for `Cc1cnc(C(=O)O)cn1` when you have a moment?
Response line: false (0)
